- SYSTEM: Putative uncharacterized protein atpE (Mycolicibacterium smegmatis, UniProt Q5TIX5)
- Sequence (Q5TIX5 whole entry): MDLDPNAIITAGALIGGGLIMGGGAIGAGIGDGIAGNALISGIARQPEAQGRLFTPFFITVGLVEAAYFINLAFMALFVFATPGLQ
- EXPERIMENT NOTES: Inhibition of Mycobacterium smegmatis MC2 155 ATP synthase subunit c-mediated ATP production
MEASUREMENT NAME: IC50 (nM)
Value expressed in nM; do not type the unit.

*Q* Lab note: need IC50 for `COc1nc2ccc(Br)cc2cc1[C@@H](c1ccccc1)[C@@](O)(CCN(C)C)c1cccc2ccccc12` on Putative uncharacterized protein atpE (Mycolicibacterium smegmatis, UniProt Q5TIX5), anyone have it?
*A* 10

* * *

- SYSTEM: Putative uncharacterized protein atpE (Mycolicibacterium smegmatis, UniProt Q5TIX5)
- EXPERIMENT NOTES: Inhibition of Mycobacterium smegmatis MC2 155 ATP synthase subunit c-mediated ATP production at 100 nM
MEASUREMENT NAME: IC50 (nM)
Number only, in nM; omit the unit.

*Q* Form field: reported IC50 of COc1nc2ccc(Br)cc2cc1[C@@H](c1ccccc1)[C@@](O)(CCN(C)C)c1cccc2ccccc12 [BEDAQUILINE]
*A* 10
